# System: primary cortico-hippocampal neuron cultures
# Experiment description: MTT in primary screening
# Condition info: primary screening; table sorted by Aβ1-42
For each entry below, report its MTT (% of ctl) value.

For each listed entry, give its MTT (% of ctl).
1. CN1C[C@H](CNC(=O)OCc2ccccc2)C[C@@H]2c3cccc4c3c(cn4C)C[C@H]21 [Metergoline]
2. OCCN(CCO)c1nc(N2CCCCC2)c2nc(N(CCO)CCO)nc(N3CCCCC3)c2n1 [Dipyridamole]
3. CC(=O)Nc1ccc(OCC(O)CNC(C)C)cc1 (centres unmarked) [Practolol]
4. CCOC(=O)C(C)(C)Oc1ccc(Cl)cc1 [Clofibrate]
5. CCCC(=O)Nc1ncnc2c1ncn2[C@@H]1O[C@@H]2COP(=O)(O)O[C@H]2[C@H]1OC(=O)CCC [Bucladesine]

# output
1: 76.5 % of ctl; 2: 102.7 % of ctl; 3: 101.3 % of ctl; 4: 97.9 % of ctl; 5: 97.2 % of ctl

---

For each entry below, report its activity at 100 µM value.
# System: Aβ1-40
# Experiment description: Aβ1-40 content in conditioned medium of primary cortico-hippocampal neuron cultures from Tg2576 mice (ELISA; primary and secondary dose-response screening)
# Type: cell-based, mouse
# Condition info: Mus musculus, Neuron, 24 h, primary screening, drug 100 μM, Tg2576 neuron cultures; table sorted by Aβ1-42; read-out: Ab1-40 (% of ctl)
Where a name gives a salt, the structure may show the parent alone.
Answers are plain numbers, in %.

# annotated cases, reported activity at 100 µM shown
COCCc1ccc(OCC(O)CNC(C)C)cc1 (stereo not drawn) [Metoprolol Tartrate] = 91.4
CC(C)OC(=O)C(C)(C)Oc1ccc(C(=O)c2ccc(Cl)cc2)cc1 [Fenofibrate] = 13.9
Fc1ccc(C(c2ccc(F)cc2)N2CCN(C/C=C/c3ccccc3)CC2)cc1 [Flunarizine Hydrochloride] = 42.1
Cc1ccccc1N1C(=O)c2cc(S(N)(=O)=O)c(Cl)cc2NC1C (stereo not drawn) = 104
CCOC(=O)[C@H](CCc1ccccc1)N[C@@H](C)C(=O)N1[C@H](C(=O)O)C[C@@H]2CCC[C@@H]21 = 107
CC(C)COCC(CN(Cc1ccccc1)c1ccccc1)N1CCCC1 (stereo not drawn) [Bepridil Hydrochloride] = 5.1
NS(=O)(=O)c1cc2c(cc1C(F)(F)F)NCNS2(=O)=O [Hydroflumethiazide] = 92.4
CC(=O)CCCCn1c(=O)c2c(ncn2C)n(C)c1=O = 97.1
COc1cc2nc(N3CCN(C(=O)c4ccco4)CC3)nc(N)c2cc1OC [Prazosin Hydrochloride] = 7.6
COc1ccccc1OCCNCC(O)COc1cccc2[nH]c3ccccc3c12 (stereo not drawn) = 38.3

For each listed entry, give its activity at 100 µM.
1. CC(C)(C)NC[C@H](O)COc1nsnc1N1CCOCC1 [Timolol Maleate]
2. CC(=O)CC(c1ccccc1)c1c(O)c2ccccc2oc1=O (stereo not drawn)

# output
1. 101
2. 89.4

For each listed entry, give its activity at 100 µM.
1. COc1ccc2cc1Oc1ccc(cc1)C[C@H]1c3cc(c(OC)cc3CCN1C)Oc1c(OC)c(OC)cc3c1[C@H](C2)N(C)CC3
2. C#CCN(C)Cc1ccccc1 [Pargyline Hydrochloride]
3. CN1C(C)(C)CCCC1(C)C [Pempidine Tartrate]
4. COc1ccc([C@@H]2Sc3ccccc3N(CCN(C)C)C(=O)[C@@H]2OC(C)=O)cc1 [Diltiazem Hydrochloride]
5. CCN(CC)CCNC(=O)c1ccc(N)cc1 [Procainamide Hydrochloride]
6. CC[C@]12CCCN3CCc4c(n(c5ccccc45)[C@@](O)(C(=O)OC)C1)[C@@H]32

# output
1. 4.5
2. 78.6
3. 80.9
4. 108
5. 118
6. 99.1
